The reported numbers originate from patent US8871753B2.

- Tested target: Recombinant Human Anaplastic Lymphoma Kinase (Homo sapiens)
- Construct: purchased Invitrogen, Carlsbad, Calif
- Sequence (Q9UM73 19-1620): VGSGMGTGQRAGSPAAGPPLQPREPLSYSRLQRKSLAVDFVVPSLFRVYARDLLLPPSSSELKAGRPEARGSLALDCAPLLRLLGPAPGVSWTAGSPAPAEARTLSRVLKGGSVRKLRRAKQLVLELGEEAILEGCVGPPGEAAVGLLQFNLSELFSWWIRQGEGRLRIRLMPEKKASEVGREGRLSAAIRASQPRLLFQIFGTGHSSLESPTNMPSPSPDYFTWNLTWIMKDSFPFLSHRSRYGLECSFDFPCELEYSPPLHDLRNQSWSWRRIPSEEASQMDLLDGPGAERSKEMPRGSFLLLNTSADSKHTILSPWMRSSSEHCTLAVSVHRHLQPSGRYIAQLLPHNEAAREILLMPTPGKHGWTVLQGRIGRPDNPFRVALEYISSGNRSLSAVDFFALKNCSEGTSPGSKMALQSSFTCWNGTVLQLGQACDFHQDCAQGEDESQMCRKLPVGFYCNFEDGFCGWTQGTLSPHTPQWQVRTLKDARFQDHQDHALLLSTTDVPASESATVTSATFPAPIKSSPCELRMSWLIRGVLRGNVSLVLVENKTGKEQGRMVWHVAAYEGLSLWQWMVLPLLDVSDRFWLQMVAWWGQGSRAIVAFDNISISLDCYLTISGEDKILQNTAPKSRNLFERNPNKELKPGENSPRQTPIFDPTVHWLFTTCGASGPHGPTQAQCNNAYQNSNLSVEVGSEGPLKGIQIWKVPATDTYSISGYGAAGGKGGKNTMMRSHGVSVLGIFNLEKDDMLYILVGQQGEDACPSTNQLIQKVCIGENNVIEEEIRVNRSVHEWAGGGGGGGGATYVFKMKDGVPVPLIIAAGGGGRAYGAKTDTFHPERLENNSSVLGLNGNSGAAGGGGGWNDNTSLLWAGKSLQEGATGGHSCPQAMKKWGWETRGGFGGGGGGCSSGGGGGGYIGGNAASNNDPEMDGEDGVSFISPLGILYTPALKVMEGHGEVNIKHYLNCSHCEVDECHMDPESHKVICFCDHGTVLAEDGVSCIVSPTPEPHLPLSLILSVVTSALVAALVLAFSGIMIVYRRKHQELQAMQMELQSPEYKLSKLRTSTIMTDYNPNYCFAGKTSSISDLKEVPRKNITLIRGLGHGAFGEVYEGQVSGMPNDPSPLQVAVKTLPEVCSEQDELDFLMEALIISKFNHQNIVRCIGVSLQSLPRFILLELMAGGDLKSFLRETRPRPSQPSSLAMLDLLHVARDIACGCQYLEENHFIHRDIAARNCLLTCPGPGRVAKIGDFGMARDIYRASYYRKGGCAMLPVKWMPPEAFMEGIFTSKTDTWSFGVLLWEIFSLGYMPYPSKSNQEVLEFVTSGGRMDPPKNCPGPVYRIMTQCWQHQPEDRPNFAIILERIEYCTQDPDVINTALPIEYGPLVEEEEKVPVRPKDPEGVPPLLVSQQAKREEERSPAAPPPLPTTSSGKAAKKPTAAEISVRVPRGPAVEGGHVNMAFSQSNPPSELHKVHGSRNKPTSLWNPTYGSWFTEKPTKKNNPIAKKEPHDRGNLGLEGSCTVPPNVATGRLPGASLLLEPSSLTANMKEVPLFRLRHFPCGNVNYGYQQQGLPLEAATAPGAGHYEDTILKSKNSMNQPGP
- Method summary: ALK HTRF kinase assay
- Assay type: biochemical
- Conditions used: compound at a concentration of 500 nM or 1 mM (not specified); cells shown as percentage
Counter-ions that a name gives are not always drawn.
Result type: ALK % of inhibition at a concentration of 500 nM or 1 mM (%)
Just the number in %, nothing appended.

Reference set (2 entries):
>>> result("O=C(NCCN1CCNCC1)Nc1ccc2cc1CCc1cccc(c1)Nc1ncc(Cl)c(n1)N2 [Example B260, trihydrochloride]")
26
>>> result("O=C(Nc1ccc2cc1CCc1cncc(c1)Nc1ncc(Cl)c(n1)N2)N1CCN(C(=O)c2ccccc2)CC1 [Example B286, bis(trifluoroacetate)]")
51

Turning to the following molecule.
ALK % of inhibition at a concentration of 500 nM or 1 mM for Cn1ccc(C(=O)N2CC[C@H](NC(=O)Nc3ccc4cc3CCc3cncc(c3)Nc3ncc(Cl)c(n3)N4)C2)n1 [Example B272, bis(trifluoroacetate)] ?
23

* * *

- Tested target: TYK2 (Homo sapiens)
- Sequence (P29597 whole entry): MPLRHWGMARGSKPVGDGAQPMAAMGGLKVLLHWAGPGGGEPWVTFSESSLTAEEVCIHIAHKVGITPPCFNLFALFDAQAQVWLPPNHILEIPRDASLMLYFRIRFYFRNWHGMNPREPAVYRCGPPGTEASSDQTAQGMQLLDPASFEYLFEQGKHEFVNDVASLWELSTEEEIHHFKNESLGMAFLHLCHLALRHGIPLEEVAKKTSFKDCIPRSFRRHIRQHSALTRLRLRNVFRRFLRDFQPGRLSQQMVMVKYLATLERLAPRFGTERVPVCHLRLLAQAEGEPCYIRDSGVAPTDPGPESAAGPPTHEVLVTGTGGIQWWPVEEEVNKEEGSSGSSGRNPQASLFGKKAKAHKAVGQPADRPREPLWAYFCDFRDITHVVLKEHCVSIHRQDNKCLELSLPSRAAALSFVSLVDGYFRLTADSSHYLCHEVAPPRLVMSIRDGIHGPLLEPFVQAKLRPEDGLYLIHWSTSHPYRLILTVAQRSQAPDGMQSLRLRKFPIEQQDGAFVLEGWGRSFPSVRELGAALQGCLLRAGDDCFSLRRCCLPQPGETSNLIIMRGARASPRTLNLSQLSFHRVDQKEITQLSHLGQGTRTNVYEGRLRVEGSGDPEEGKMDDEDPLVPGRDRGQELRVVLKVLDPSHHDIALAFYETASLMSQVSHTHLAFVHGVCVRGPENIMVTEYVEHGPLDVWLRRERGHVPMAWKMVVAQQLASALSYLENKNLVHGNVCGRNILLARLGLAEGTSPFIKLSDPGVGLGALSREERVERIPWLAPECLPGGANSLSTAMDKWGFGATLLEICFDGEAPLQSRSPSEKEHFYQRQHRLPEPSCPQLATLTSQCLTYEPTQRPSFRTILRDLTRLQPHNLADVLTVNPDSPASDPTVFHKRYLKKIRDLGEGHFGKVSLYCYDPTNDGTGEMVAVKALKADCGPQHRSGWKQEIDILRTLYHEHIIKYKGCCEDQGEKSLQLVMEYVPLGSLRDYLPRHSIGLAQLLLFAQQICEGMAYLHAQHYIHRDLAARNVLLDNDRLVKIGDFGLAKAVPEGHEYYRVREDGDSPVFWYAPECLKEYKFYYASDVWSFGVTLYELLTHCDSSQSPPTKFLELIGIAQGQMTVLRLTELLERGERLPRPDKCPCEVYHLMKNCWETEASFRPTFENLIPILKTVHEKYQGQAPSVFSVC
- Method summary: TYK2 kinase inhibition (Table A1)
- Type: biochemical
- Conditions used: Table B1
Structures can show the parent of a compound that is named as a salt.
Result type: log10 of IC50 (log10 of the value in nM)
The figures below represent log10 of IC50, where IC50 is stated in nM.

>>> result("CCC(C)C(=O)Nc1ccc2cc1CCc1cccc(c1)Nc1ncc(Cl)c(n1)N2 (stereo not shown) [Example B61, trifluoroacetate]")
1.53
>>> result("O=C(Nc1ccc2cc1CCc1cccc(c1)Nc1ncc(Cl)c(n1)N2)c1cccc(F)c1 [Example B48, trifluoroacetate]")
0.23
>>> result("O=C(Nc1ccc2cc1CCc1cccc(c1)Nc1ncc(Cl)c(n1)N2)Nc1ccccc1C(F)(F)F [Example B111, trifluoroacetate]")
0.70
>>> result("CCc1ccc(NC(=O)Nc2ccc3cc2CCc2cccc(c2)Nc2ncc(Cl)c(n2)N3)cc1 [Example B98, trifluoroacetate]")
1.58
>>> result("CN(Cc1ccc2cc1CCc1cncc(c1)Nc1ncc(Cl)c(n1)N2)CC1CCN(S(=O)(=O)c2ccccc2C#N)CC1 [Example B340, tris(trifluoroacetate)]")
2.26

// map Cc1cc(C(=O)Nc2ccc3cc2CCc2cccc(c2)Nc2ncc(Cl)c(n2)N3)no1 [Example B68, trifluoroacetate] to recorded log10 of IC50 (system: TYK2 (Homo sapiens))
0.56

GET /values?readout=log10 of IC50&system=TYK2 (Homo sapiens)&item= O=C(NCCNS(=O)(=O)c1ccc(Cl)nc1)Nc1ccc2cc1CCc1cccc(c1)Nc1ncc(Cl)c(n1)N2 [Example B331, trifluoroacetate]
1.20

* * *

- Tested target: human JAK2 (a.a. 828-1132) (Homo sapiens)
- Construct: JAK2 (a.a. 828-1132); His tag (N); made in house; host or cells: insect cells (baculovirus)
- Sequence (O60674 828-1132): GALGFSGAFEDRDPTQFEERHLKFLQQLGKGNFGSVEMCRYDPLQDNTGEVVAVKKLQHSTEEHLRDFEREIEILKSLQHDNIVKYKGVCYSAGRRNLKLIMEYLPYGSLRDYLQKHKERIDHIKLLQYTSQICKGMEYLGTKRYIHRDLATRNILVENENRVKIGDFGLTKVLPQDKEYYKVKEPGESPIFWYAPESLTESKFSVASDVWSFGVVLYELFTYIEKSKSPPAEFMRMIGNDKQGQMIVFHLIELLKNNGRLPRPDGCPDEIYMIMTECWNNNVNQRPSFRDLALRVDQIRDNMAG
- Method summary: In vitro JAK kinase assay (HTRF, phosphorylation of a biotinylated peptide), JAK2
- Format: biochemical
- Conditions used: Table D1
Result type: IC50 (nM)
Provide only the numeric value, understood in nM.

>>> result("O=C(C[C@@H]1CCN(C(=O)Nc2ccccc2F)C1)Nc1ccc2cc1CCc1cncc(c1)Nc1ncc(Cl)c(n1)N2 [Example D135, bis(trifluoroacetate)]")
314
>>> result("O=C(COc1ccc2cc1CCc1cncc(c1)Nc1ncc(Cl)c(n1)N2)N1CCN(c2ccccc2)CC1 [Example D234, tris(trifluoroacetate)]")
160

Here's the next entry for you.
Could you share which IC50 value was measured for Cc1n[nH]c(C)c1-c1cc2cc(c1)Nc1ncc(Cl)c(n1)Nc1cccc(c1)OCC2 [Example D30, bis(trifluoroacetate)] ?
0.6
